Tested on: BT20 Cell
Experimental Details: Cancer Cell Lysate Total L-Glutamate Assay
Type: cell-based
Test Conditions: Homo sapiens, BT-20, 2 h, total L-glutamate in cell lysate, BT20 cells, 2 hour incubation with test compound
Parameter Measured: IC50 (nM)

(P) O=C(Cc1ccccn1)Nc1nnc([C@@H]2CC[C@H](Cc3nnc(NC(=O)c4ccccc4F)s3)C2)s1 (racemic) [Example 144]
(Q) CC(=O)Nc1nnc(C2CC[C@H](Cc3nnc(NC(=O)Cc4ccccc4)s3)C2)s1 (single isomer, unassigned) [Example 16]
(R) CC(=O)Nc1nnc(C2CCC(Cc3nnc(NC(=O)Cc4cncnc4)s3)C2)s1 (racemic) [Example 49]
// rank the listed molecules by IC50, lowest value first In your reply, arrange the labels in the requested order.
P, Q, R
(P: 0.7 nM, Q: 399 nM, R: 789 nM)

(A) O=C(Cc1ccccn1)Nc1nnc(CC2CCC(c3nnc(NC(=O)Cc4ccccn4)s3)C2)s1 (racemic) [Example 3]
(B) CC(=O)Nc1nnc(C2CCC(Cc3nnc(NC(=O)Cc4ccccn4)s3)C2)s1 (racemic) [Example 18]
Sorting by IC50 in descending order, would A or B appear first? Please reply using the label of the selected record.
B

(P) CC(C)(C)C(=O)Nc1nnc(CC2CCC(c3nnc(NC(=O)C(C)(C)C)s3)C2)s1 (racemic) [Example 27]
(Q) O=C(Cc1ccccn1)Nc1nnc(C[C@H]2CC[C@@H](c3nnc(Nc4ccccn4)s3)C2)s1 (single isomer, unassigned) [Example 86]
Lower IC50: P or Q ? Please reply using the label of the selected record.
Q
(Q: 4.8 nM, P: 242 nM)
